Target: human recombinant p56^lck (Homo sapiens)
Sequence (P06239 whole entry): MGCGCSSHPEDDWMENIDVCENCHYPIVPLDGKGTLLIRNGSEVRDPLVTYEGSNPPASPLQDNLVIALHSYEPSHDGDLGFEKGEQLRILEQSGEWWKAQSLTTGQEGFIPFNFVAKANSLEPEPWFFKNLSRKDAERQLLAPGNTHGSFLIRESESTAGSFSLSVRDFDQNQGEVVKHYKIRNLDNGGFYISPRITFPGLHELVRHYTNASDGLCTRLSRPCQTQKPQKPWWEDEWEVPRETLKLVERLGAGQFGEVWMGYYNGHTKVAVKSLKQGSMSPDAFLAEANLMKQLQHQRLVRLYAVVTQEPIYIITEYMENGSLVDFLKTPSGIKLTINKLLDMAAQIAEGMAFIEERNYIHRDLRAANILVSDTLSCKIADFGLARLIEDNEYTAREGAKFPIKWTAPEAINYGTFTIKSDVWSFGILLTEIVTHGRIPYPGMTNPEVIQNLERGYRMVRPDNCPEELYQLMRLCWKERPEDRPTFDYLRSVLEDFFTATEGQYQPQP
Assay: Inhibition of T-cell tyrosine kinase p56^lck (incorporation of 33P from [γ-^33 P] ATP into peptide substrate)
Details: 10 μM ATP, 20 μM peptide substrate, 30° C., 60 minutes, pH 7.5
Counter-ions that a name gives are not always drawn.
Readout Kind: pIC50
pIC50 here is simply -log10 of the concentration when that concentration is written in mol/L.

Please review the entries below; each comes with its answer.
Molecule: O=C1N(c2c(Cl)cccc2Cl)Cc2cnc(Nc3ccncc3)nc2N1c1ccccc1
pIC50: 6.58
//
Molecule: CCN(CC)CCOc1ccc(Nc2ncc3c(n2)N(c2ccccc2)C(=O)N(c2c(Cl)cccc2Cl)C3)cc1
pIC50: 9.22
//
Molecule: CCN(CC)CCOc1ccc(Nc2ncc3c(n2)N(Cc2cccnc2)C(=O)N(c2c(Cl)cccc2Cl)C3)cc1 [Example 10, trifluoroacetate]
pIC50: 7.72
//
Molecule: NCCc1cccc(N2C(=O)N(c3ccccc3Br)Cc3cnc(Nc4ccccc4)nc32)c1
pIC50: 8.22

Q: Please report the recorded pIC50 for CCN(CC)CCOc1ccc(Nc2ncc3c(n2)N(c2cccc(CCN(C)C)c2)C(=O)N(c2ccc(Cl)cc2Cl)C3)cc1 .
Ans: 9.40

Q: Please report the recorded pIC50 for CCC(CC)(CN)c1cccc(N2C(=O)N(c3c(Cl)cccc3Cl)Cc3cnc(Nc4ccccc4)nc32)c1 [Example 85, trifluoroacetate] .
Ans: 8.15

Q: Please report the recorded pIC50 for NCCc1cccc(N2C(=O)N(c3c(Cl)cccc3Cl)Cc3cnc(Nc4ccccc4)nc32)c1 .
Ans: 10.52

Q: Please report the recorded pIC50 for CCN(CC)CCOc1ccc(Nc2ncc3c(n2)N(C)C(=O)N(c2c(Cl)cccc2Cl)C3)cc1 .
Ans: 8.00

Q: Please report the recorded pIC50 for O=C1N(c2ccccc2Br)Cc2cnc(Nc3ccccc3)nc2N1c1ccc(CO)cc1 .
Ans: 7.77

Sourced from patent US6150373A
